Would you kindly list composite z-score for each of these compounds?
System: Noggin (protein binding on small-molecule microarray)
MEASUREMENT NOTES: Noggin binders on small-molecule microarray, primary screen, biochemical, 635/667 nm fluorescence (AID 1095);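 note: score merges 667 nm feature fluorescence with signal to noise over triplicate slides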
CONDITION DESCRIPTION: 635 nm fluorescence, higher = more signal
Enter the number alone.

Name the recorded composite z-score for `CCOC(=O)[C@H]1C/C=C/C[C@H](C(=O)OCC)C(=O)O[C@H]2[C@@H](OC)O[C@H](CO)[C@@H](OC(=O)c3c(OC)cccc3OC)[C@@H]2OC1=O` .
1.15

Another: `COCCOC(=O)N1C(=O)[C@@]2(c3cc(C#Cc4ccc(OC)cc4)ccc31)[C@H](c1ccc(O)cc1)N1[C@H](c3ccccc3)[C@H](c3ccccc3)OC(=O)[C@H]1[C@@H]2C(=O)N1CCc2cc(OC)c(OC)cc2C1`
0.75

Another: `COCCOC(=O)N1C(=O)[C@@]2(c3cc(C#CCNC(N)=O)ccc31)[C@H](C(=O)N1CCN(c3ncccn3)CC1)[C@H]1C(=O)O[C@H](c3ccccc3)[C@H](c3ccccc3)N1[C@@H]2c1ccc(OCCO)cc1`
0.707

Another: `[N-]=[N+]=NCc1ccccc1C[C@]1(C(=O)N2CCCCC2)N=C(c2ccc(OCCCO)cc2)O[C@H]1c1ccccc1N=[N+]=[N-]`
-0.112

Another: CCN(CC)c1ccc(N2CC=CC34O[C@@H]5C=CCCOC(=O)C5[C@H]3C(=O)N(CCCCCCO)[C@@H]4C2=O)cc1 (stereo partly specified)
-0.612

Another: `Cc1ccc(N2C(=O)c3ccccc3[C@@H](C(=O)NC3CC3)[C@@H]2c2ccc(CO)cc2)nc1`
-0.912
